Tested on: Hepatitis C virus
Assay: Antiviral activity against HCV JFH-1 infected in human Huh7.5.1 cells assessed as reduction in NS3/NS5A expression by Western blot analysis
Assay type: functional, organism-based, Hepacivirus hominis
Conditions: Hepatitis C virus, JFH-1, Huh-7.5.1
measurement kind: IC50 (µM)

Reference set (2 entries):
COc1cc([C@@H]2Oc3cc([C@H]4Oc5cc(O)cc(O)c5C(=O)[C@@H]4O)ccc3O[C@H]2CO)ccc1O [SILYBIN B]: 50
COc1cc(C2Oc3cc([C@H]4Oc5cc(O)cc(O)c5C(=O)[C@@H]4O)ccc3OC2CO)ccc1O (some centres undefined) [SILIBININ]: 60

1: COc1cc([C@H]2Oc3cc([C@H]4Oc5cc(O)cc(O)c5C(=O)[C@@H]4O)ccc3O[C@@H]2CO)ccc1O [SILYBIN A]
2: C=CCc1cc(OC)c2c(c1)O[C@H](c1ccc3c(c1)OCO3)[C@@H](C)O2
-- ask For the pair 1 and 2 , which member has the lower IC50 number? Select an item and report its label.
-- reply 2
(2: 20 µM, 1: 50 µM)

====

Experiment: Selectivity index, ratio of CC50 for human Huh7.5.1 cells to IC50 for HCV JFH1 infected in human Huh7.5.1 cells
Assay type: toxicity, cell-based
Conditions: Huh7.5.1 cells, HCV JFH1-infected Huh7.5.1 cells, read-out: Ratio CC50/IC50
measurement kind: selectivity ratio
Answer with the value's number alone.

COc1cc([C@H]2Oc3cc(/C=C/C=O)cc(OC)c3O[C@@H]2C)cc(OC)c1OC: 1.91
COc1cc([C@@H]2Oc3cc([C@H]4Oc5cc(O)cc(O)c5C(=O)[C@@H]4O)ccc3O[C@H]2CO)ccc1O: 1.37
COc1cc([C@H]2Oc3cc(/C=C/CO)cc(OC)c3O[C@@H]2C)cc(OC)c1OC: 2.57
COc1cc([C@H]2Oc3cccc(OC)c3O[C@@H]2C)cc(OC)c1OC: 1.25
COc1cc([C@H]2Oc3cc([C@H]4Oc5cc(O)cc(O)c5C(=O)[C@@H]4O)ccc3O[C@@H]2CO)ccc1O: 1.6
COc1cc([C@H]2Oc3cc(/C=C/CO)cc(OC)c3O[C@@H]2CO)cc(OC)c1O: 2.32
C=CCc1cc(OC)c2c(c1)O[C@H](c1cc(OC)c(OC)c(OC)c1)[C@@H](C)O2: 1.21

-- ask Recorded selectivity ratio of COc1cc(C2Oc3cc([C@H]4Oc5cc(O)cc(O)c5C(=O)[C@@H]4O)ccc3OC2CO)ccc1O (some centres undefined) , please.
-- reply 1.33

====

Experiment: Cytotoxicity against human Huh7.5.1 cells after 72 hrs by ATPlite assay
Format: cell-based
Conditions: Huh7.5.1 cells
Measured CC50 at 72 h by item
Write the value in µM as a bare number.

Known CC50 at 72 h results, listed for orientation:
COc1cc([C@@H]2Oc3cc([C@H]4Oc5cc(O)cc(O)c5C(=O)[C@@H]4O)ccc3O[C@H]2CO)ccc1O: 68.7
COc1cc([C@H]2Oc3cc(/C=C/CO)cc(OC)c3O[C@@H]2C)cc(OC)c1OC: 129
COc1cc([C@H]2Oc3cc(/C=C/CO)cc(OC)c3O[C@@H]2CO)cc(OC)c1O: 464
C=CCc1cc(OC)c2c(c1)O[C@H](c1cc(OC)c(OC)c(OC)c1)[C@@H](C)O2: 36.2
COc1cc([C@H]2Oc3cc(/C=C/C=O)cc(OC)c3O[C@@H]2C)cc(OC)c1OC: 47.6
COc1cc(C2Oc3cc([C@H]4Oc5cc(O)cc(O)c5C(=O)[C@@H]4O)ccc3OC2CO)ccc1O (some centres undefined): 80

-- ask Which CC50 at 72 h is listed for `COc1cc([C@H]2Oc3cccc(OC)c3O[C@@H]2C)cc(OC)c1OC` ?
-- reply 50.2

-- ask Consider next the compound `COc1cc([C@H]2Oc3cc([C@H]4Oc5cc(O)cc(O)c5C(=O)[C@@H]4O)ccc3O[C@@H]2CO)ccc1O` in the same way.
-- reply 80
